# TARGET SYSTEM: MAPK14 (human)
# PROTOCOL: Inhibition of MAPK14 Kinase Activity
pIC50: −log10 of the molar value.
OBSERVED PROPERTY: pIC50

Reference set (2 entries):
O=c1ccc2c(-c3ccc(F)cc3F)nc(NC(CO)CO)nc2n1-c1ccc(F)cc1F	> 5.00
O=c1ccc2c(-c3ccc(F)cc3F)nc(NC(CO)CO)nc2n1-c1c(F)cc(F)cc1F	> 5.00

Turning now to a further record.
Returns the measured pIC50 for the input compound. Input: `O=c1ccc2c(-c3ccccc3F)nc(NC(CO)CO)nc2n1-c1c(F)cc(F)cc1F` > 5.00
